The reported numbers originate from paper PMC11018007.

# Test System: hCA II (Homo sapiens)
# Construct: gene CA2; recombinant from plasmid pACA/hCA II, E. coli BL21 (DE3)
# Assay Procedure: stopped-flow CO2 hydrase assay
# Type: biochemical
# Description: stopped-flow CO2 hydrase assay on hCA II
Each entry below lists one item and its recorded Ki value.

>  <Smiles Text>
O=C1CN(N2C(=O)c3ccccc3C2=O)C(=O)N1

>  <Ki / µM>
6.94

$$$$
>  <Smiles Text>
O=C1CN(N2C(=O)c3ccc([N+](=O)[O-])cc3C2=O)C(=O)N1

>  <Ki / µM>
8.99

$$$$
>  <Smiles Text>
O=C1CN(NC(=O)c2cc([N+](=O)[O-])ccc2C(=O)O)C(=O)N1

>  <Ki / µM>
58.6

$$$$
